pKd listing for selected binders.
Measured target: T1, human IL-18BP (human, UniProt O95998 31-194)
T1 construct: also called hIL-18BP; Mature Human Isoform A
T1 sequence: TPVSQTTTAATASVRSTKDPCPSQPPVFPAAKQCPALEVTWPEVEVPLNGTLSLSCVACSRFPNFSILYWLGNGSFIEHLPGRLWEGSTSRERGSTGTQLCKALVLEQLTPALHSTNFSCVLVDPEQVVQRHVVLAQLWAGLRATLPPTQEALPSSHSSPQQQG
Experimental details: BLI, apparent KD, one conc.
pKd: −log10 of the molar value.

[
  {
    "Binder": "SA301a light chain variant S28H (antibody, V domains shown) VH: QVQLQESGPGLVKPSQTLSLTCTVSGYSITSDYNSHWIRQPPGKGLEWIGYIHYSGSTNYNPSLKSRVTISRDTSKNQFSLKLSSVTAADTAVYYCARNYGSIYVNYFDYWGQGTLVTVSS VL: EIVLTQSPATLSLSPGERATLSCSASSHVSYMYWYQQKPGQAPRPLIYRTSNLASGIPARFSGSGSGTDFTLTISSLEPEDFAVYYCQQYHSYPTFGGGTKVEIK",
    "pKd": 9.36
  },
  {
    "Binder": "SA301a light chain variant V29P (antibody, V domains shown) VH: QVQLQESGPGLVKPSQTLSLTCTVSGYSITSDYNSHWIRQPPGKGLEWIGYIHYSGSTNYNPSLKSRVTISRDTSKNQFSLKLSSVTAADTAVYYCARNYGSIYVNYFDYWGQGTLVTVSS VL: EIVLTQSPATLSLSPGERATLSCSASSSPSYMYWYQQKPGQAPRPLIYRTSNLASGIPARFSGSGSGTDFTLTISSLEPEDFAVYYCQQYHSYPTFGGGTKVEIK",
    "pKd": 9.42
  },
  {
    "Binder": "SA301a light chain variant S27P (antibody, V domains shown) VH: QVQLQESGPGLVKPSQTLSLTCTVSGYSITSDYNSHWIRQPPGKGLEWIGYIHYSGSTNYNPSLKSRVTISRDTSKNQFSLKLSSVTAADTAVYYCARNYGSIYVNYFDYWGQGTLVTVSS VL: EIVLTQSPATLSLSPGERATLSCSASPSVSYMYWYQQKPGQAPRPLIYRTSNLASGIPARFSGSGSGTDFTLTISSLEPEDFAVYYCQQYHSYPTFGGGTKVEIK",
    "pKd": 9.35
  }
]
